// values below are reported inhibition at 1 µM
target: FLT-3 kinase (Homo sapiens, UniProt P36888); construct: human FLT-3 (Arg571-Ser993); GST (N); purchased Cell Signaling Technology HTScan FLT-3 Kinase Assay Kit; host or cells: baculovirus expression system; assay: FLT-3 kinase DELFIA assay (HTScan FLT-3 Kinase Assay Kit); type: biochemical; conditions: 1 uM compound, 20 uM ATP
Sequence (P36888 571-993): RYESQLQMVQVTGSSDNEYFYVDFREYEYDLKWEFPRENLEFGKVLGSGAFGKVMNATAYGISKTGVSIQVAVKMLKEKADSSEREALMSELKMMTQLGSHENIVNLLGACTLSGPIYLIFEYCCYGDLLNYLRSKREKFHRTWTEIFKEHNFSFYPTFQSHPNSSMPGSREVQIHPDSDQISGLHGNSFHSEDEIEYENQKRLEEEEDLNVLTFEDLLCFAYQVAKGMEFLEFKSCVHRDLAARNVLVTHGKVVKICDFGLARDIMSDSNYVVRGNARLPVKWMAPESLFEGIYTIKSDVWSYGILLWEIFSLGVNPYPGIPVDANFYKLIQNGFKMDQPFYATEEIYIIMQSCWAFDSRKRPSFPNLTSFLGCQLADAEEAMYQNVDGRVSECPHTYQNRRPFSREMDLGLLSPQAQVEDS
// units = %; emit number, no label

Query: Given the compound `O=c1[nH]c2cccccc-2c1-c1nc2cc(N3CCN(S(=O)(=O)CCCl)CC3)ccc2[nH]1` , what is its reported inhibition at 1 µM?
Response: 83.8

Query: Given the compound `O=c1[nH]c2cccccc-2c1-c1nc2cc(C(F)(F)F)ccc2[nH]1` , what is its reported inhibition at 1 µM?
Response: 37.1

Query: Given the compound `O=c1[nH]c2cccccc-2c1-c1nc2cc(N3CCCN(CCF)CC3)ccc2n1CCF` , what is its reported inhibition at 1 µM?
Response: 39.4

Query: Given the compound `O=CN1CCCN(c2ccc3[nH]c(-c4c5cccccc-5[nH]c4=O)nc3c2)CC1` , what is its reported inhibition at 1 µM?
Response: 62.4

Query: Given the compound `CN(C)S(=O)(=O)N1CCCN(c2ccc3[nH]c(-c4c5cccccc-5[nH]c4=O)nc3c2)CC1` , what is its reported inhibition at 1 µM?
Response: 42.5

Query: Given the compound `CN1CCN(c2ccc3[nH]c(-c4c5cccccc-5[nH]c4=O)nc3c2)CC1` , what is its reported inhibition at 1 µM?
Response: 91.2

Query: Given the compound `CN1CCN(C(=O)c2ccc3[nH]c(-c4c5cccccc-5[nH]c4=O)nc3c2)CC1` , what is its reported inhibition at 1 µM?
Response: 39.3

Query: Given the compound `COc1ccc2nc(-c3c4cccccc-4[nH]c3=O)cn2c1` , what is its reported inhibition at 1 µM?
Response: 9.6

Query: Given the compound `NC(=O)C1CCN(c2ccc3[nH]c(-c4c5cccccc-5[nH]c4=O)nc3c2)CC1` , what is its reported inhibition at 1 µM?
Response: 86.5

Query: Given the compound `O=c1[nH]c2cccccc-2c1-c1nc2cc(N3CCN(c4ccncc4)CC3)ccc2[nH]1` , what is its reported inhibition at 1 µM?
Response: 99.1

Query: Given the compound `CN1CCC(N2CCN(c3ccc4[nH]c(-c5c6cccccc-6[nH]c5=O)nc4c3)CC2)CC1` , what is its reported inhibition at 1 µM?
Response: 86.7

Query: Given the compound `O=CN1CCN(c2ccc3[nH]c(-c4c5cccccc-5[nH]c4=O)nc3c2)CC1` , what is its reported inhibition at 1 µM?
Response: 91.6

Query: Given the compound `O=c1[nH]c2cccccc-2c1-c1nc2cc(N3CCN(c4ncccc4Cl)CC3)ccc2[nH]1` , what is its reported inhibition at 1 µM?
Response: 55.5

Query: Given the compound `O=c1[nH]c2cccccc-2c1-c1nc2cc(N3CCN(c4cccnc4)CC3)ccc2[nH]1` , what is its reported inhibition at 1 µM?
Response: 33.4

Query: Given the compound `O=C(c1ccc2[nH]c(-c3c4cccccc-4[nH]c3=O)nc2c1)N1CCCN(c2ccncc2)CC1` , what is its reported inhibition at 1 µM?
Response: 51.4

Query: Given the compound `Cc1ccc(N2CCCN(c3ccc4[nH]c(-c5c6cccccc-6[nH]c5=O)nc4c3)CC2)nn1` , what is its reported inhibition at 1 µM?
Response: 20.2
